- assayTarget: C-C chemokine receptor type 6 (Homo sapiens)
- test: antagonism across CCR6, APJ and CXCR6 receptors, profiling panel, selectivity assay for CXCR6 antagonist project, cell-based, CHO-K1 PathHunter beta-arrestin, luminescence, set 3 (AID 651708)
- experimentalContext: antagonist mode, CCR6, run 2
Form field: IC50 (one value per entry).

>>> measured("COc1ccc(NC(=O)CN2C3CCCC2CC(NC(=O)c2cc(OC)c(OC)c(OC)c2)C3)cc1 (centres undefined)")
"> 79 µM"
>>> measured("COc1cc(C(=O)NC2CC3CCCC(C2)N3CC(=O)Nc2ccc(C)cc2)cc(OC)c1OC (centres undefined)")
"> 79 µM"
>>> measured("COc1cc(C(=O)NC2CC3CCCC(C2)N3CC(=O)Nc2ccc(Cl)cc2)cc(OC)c1OC (centres undefined)")
"> 79 µM"
>>> measured("Cc1ccc(NC(=O)CN2C3CCCC2CC(NC(=O)c2ccc4c(c2)OCO4)C3)cc1 (centres undefined)")
"> 79 µM"
>>> measured("COc1cc(C(=O)NC2CC3CCCC(C2)N3CC(=O)Nc2ccccc2Cl)cc(OC)c1OC (centres undefined)")
"> 79 µM"
>>> measured("COc1ccc(CN2C3CCCC2CC(NC(=O)c2cc(OC)c(OC)c(OC)c2)C3)cc1 (centres undefined)")
"> 79 µM"

stdin: For the compound O=C(CN1C2CCCC1CC(NC(=O)c1ccc3c(c1)OCO3)C2)Nc1ccc(Cl)cc1 (centres undefined) , what IC50 is on record?
stdout: > 79 µM

stdin: For the compound COc1cc(OC)cc(C(=O)NC2CC3CCCC(C2)N3CC(=O)Nc2ccc(Cl)cc2)c1 (centres undefined) , what IC50 is on record?
stdout: > 79 µM

stdin: For the compound COc1ccc(C(=O)NC2CC3CCCC(C2)N3CC(=O)Nc2ccc(Cl)cc2)cc1 (centres undefined) , what IC50 is on record?
stdout: > 79 µM

====

- assayTarget: Apelin receptor (Homo sapiens) (UniProt P35414)
- Sequence (P35414 whole entry, looked up): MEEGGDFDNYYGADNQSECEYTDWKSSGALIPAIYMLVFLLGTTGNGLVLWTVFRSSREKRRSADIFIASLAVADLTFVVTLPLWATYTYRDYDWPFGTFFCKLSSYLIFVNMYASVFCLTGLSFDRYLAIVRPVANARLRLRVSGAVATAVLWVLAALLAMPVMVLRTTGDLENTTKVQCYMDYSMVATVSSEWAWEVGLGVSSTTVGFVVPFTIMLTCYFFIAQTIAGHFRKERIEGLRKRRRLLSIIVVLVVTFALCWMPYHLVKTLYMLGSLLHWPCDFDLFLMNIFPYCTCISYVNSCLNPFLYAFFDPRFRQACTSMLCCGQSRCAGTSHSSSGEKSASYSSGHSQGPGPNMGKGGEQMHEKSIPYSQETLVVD
- test: antagonism across CCR6, APJ and CXCR6 receptors, profiling panel, selectivity assay for CXCR6 antagonist project, cell-based, CHO-K1 PathHunter beta-arrestin, luminescence, set 3 (AID 651708)
- experimentalContext: antagonist mode, APJ, run 2
recordedMetric: IC50

>>> measured("COc1ccc(NC(=O)CN2C3CCCC2CC(NC(=O)c2cc(OC)c(OC)c(OC)c2)C3)cc1 (stereo not given)")
"> 79 µM"

stdin: For the compound COc1ccc(NC(=O)CN2C3CCCC2CC(NC(=O)c2ccc4c(c2)OCO4)C3)cc1 (stereo not given) , what IC50 is on record?
stdout: > 79 µM

stdin: For the compound O=C(CN1C2CCCC1CC(NC(=O)c1ccccc1)C2)Nc1ccccc1 (stereo not given) , what IC50 is on record?
stdout: > 79 µM

stdin: For the compound COc1ccc(C(=O)NC2CC3CCCC(C2)N3CC(=O)Nc2ccc(Cl)cc2)cc1 (stereo not given) , what IC50 is on record?
stdout: > 79 µM

stdin: For the compound COc1cccc(C(=O)NC2CC3CCCC(C2)N3CC(=O)Nc2ccccc2)c1 (stereo not given) , what IC50 is on record?
stdout: > 79 µM

stdin: For the compound O=C(CN1C2CCCC1CC(NC(=O)c1ccc3c(c1)OCO3)C2)Nc1ccc(Cl)cc1 (stereo not given) , what IC50 is on record?
stdout: 36.9 µM

stdin: For the compound COc1ccc(C(=O)NC2CC3CCCC(C2)N3CC(=O)Nc2ccc(C)cc2)cc1 (stereo not given) , what IC50 is on record?
stdout: > 79 µM

stdin: For the compound COc1ccc(NC(=O)CN2C3CCCC2CC(NC(=O)c2ccc(OC)cc2)C3)cc1 (stereo not given) , what IC50 is on record?
stdout: 4.23 µM

stdin: For the compound COc1ccc(C(=O)NC2CC3CCCC(C2)N3CC(=O)Nc2ccccc2)cc1 (stereo not given) , what IC50 is on record?
stdout: > 79 µM

stdin: For the compound COc1ccc(NC(=O)CN2C3CCCC2CC(NC(=O)c2ccc(OC)c(OC)c2)C3)cc1 (stereo not given) , what IC50 is on record?
stdout: 0.307 µM

====

Form field: IC50 (one value per entry).
- assayTarget: C-X-C chemokine receptor type 6 (Homo sapiens)
- test: antagonism across CCR6, APJ and CXCR6 receptors, profiling panel, selectivity assay for CXCR6 antagonist project, cell-based, CHO-K1 PathHunter beta-arrestin, luminescence, set 3 (AID 651708)
- experimentalContext: antagonist mode, CXCR6, run 2

Below, 10 compounds whose answers are already recorded.
>>> measured("COc1ccc(CN2C3CCCC2CC(NC(=O)c2cc(OC)c(OC)c(OC)c2)C3)cc1 (stereo not drawn)")
"> 79 µM"
>>> measured("COc1cc(OC)cc(C(=O)NC2CC3CCCC(C2)N3CC(=O)Nc2ccc(C)cc2)c1 (stereo not drawn)")
"> 79 µM"
>>> measured("COc1cc(OC)cc(C(=O)NC2CC3CCCC(C2)N3CC(=O)Nc2ccc(Cl)cc2)c1 (stereo not drawn)")
"> 79 µM"
>>> measured("COc1ccc(NC(=O)CN2C3CCCC2CC(NC(=O)c2cc(OC)cc(OC)c2)C3)cc1 (stereo not drawn)")
"> 79 µM"
>>> measured("COc1ccc(NC(=O)CN2C3CCCC2CC(NC(=O)c2cc(OC)c(OC)c(OC)c2)C3)cc1 (stereo not drawn)")
"26.4 µM"
>>> measured("COc1ccc(C(=O)NC2CC3CCCC(C2)N3CC(=O)Nc2ccc(F)cc2)cc1 (stereo not drawn)")
"> 79 µM"
>>> measured("O=C(CN1C2CCCC1CC(NC(=O)c1ccc3c(c1)OCO3)C2)Nc1ccc(Cl)cc1 (stereo not drawn)")
"> 79 µM"
>>> measured("COc1ccc(C(=O)NC2CC3CCCC(C2)N3CC(=O)Nc2ccc(C)cc2)cc1 (stereo not drawn)")
"> 79 µM"
>>> measured("COc1ccc(C(=O)NC2CC3CCCC(C2)N3CC(=O)Nc2ccccc2)cc1OC (stereo not drawn)")
"> 79 µM"
>>> measured("COc1cccc(C(=O)NC2CC3CCCC(C2)N3CC(=O)Nc2ccccc2)c1 (stereo not drawn)")
"> 79 µM"

We next turn to a different compound, shown below.
stdin: Under C-X-C chemokine receptor type 6 (Homo sapiens): IC50 value of COc1cccc(C(=O)NC2CC3CCCC(C2)N3CC(=O)Nc2ccc(Cl)cc2)c1 (stereo not drawn) ?
stdout: > 79 µM

====

- assayTarget: UniProtKB P35414
- test: antagonism across CCR6, APJ and CXCR6 receptors, profiling panel, selectivity assay for CXCR6 antagonist project, cell-based, CHO-K1 PathHunter beta-arrestin, luminescence, set 3 (AID 651708)
- experimentalContext: antagonist mode, APJ, mean of runs
Activity calls are given as the source filed them.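 Rule for the calls: active = compound with IC50 above 30 µM at both the APJ and CCR6 off-target receptors, and at most 10 µM at CXCR6; inactive = the rest.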
Use one of these outcomes when replying: active, inactive

>>> qualitativelabel("COc1cc(C(=O)NC2CC3CCCC(C2)N3CC(=O)Nc2ccccc2)cc(OC)c1OC (stereo unspecified)")
"inactive"

stdin: What was the test verdict on COc1ccc(C(=O)NC2CC3CCCC(C2)N3CC(=O)Nc2ccc(F)cc2)cc1 (stereo unspecified) ?
stdout: inactive

stdin: What was the test verdict on COc1ccc(C(=O)NC2CC3CCCC(C2)N3CC(=O)Nc2ccc(Cl)cc2)cc1OC (stereo unspecified) ?
stdout: inactive

stdin: What was the test verdict on COc1cccc(C(=O)NC2CC3CCCC(C2)N3CC(=O)Nc2ccccc2)c1 (stereo unspecified) ?
stdout: inactive

stdin: What was the test verdict on COc1ccc(NC(=O)CN2C3CCCC2CC(NC(=O)c2cc(OC)c(OC)c(OC)c2)C3)cc1 (stereo unspecified) ?
stdout: inactive

stdin: What was the test verdict on COc1ccc(C(=O)NC2CC3CCCC(C2)N3CC(=O)Nc2ccccc2)cc1OC (stereo unspecified) ?
stdout: inactive

====

- assayTarget: C-X-C chemokine receptor type 6 (Homo sapiens) (UniProt O00574)
- Sequence (O00574 whole entry, looked up): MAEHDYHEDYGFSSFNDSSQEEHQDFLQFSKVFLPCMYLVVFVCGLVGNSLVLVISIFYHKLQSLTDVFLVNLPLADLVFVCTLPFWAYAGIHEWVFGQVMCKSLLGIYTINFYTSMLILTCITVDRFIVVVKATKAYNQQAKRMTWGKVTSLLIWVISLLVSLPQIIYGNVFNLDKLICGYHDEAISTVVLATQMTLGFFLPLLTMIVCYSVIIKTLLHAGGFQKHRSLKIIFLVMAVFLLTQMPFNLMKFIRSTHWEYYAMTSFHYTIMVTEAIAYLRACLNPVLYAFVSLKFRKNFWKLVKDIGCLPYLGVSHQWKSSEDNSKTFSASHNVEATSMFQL
- test: antagonism across CCR6, APJ and CXCR6 receptors, profiling panel, selectivity assay for CXCR6 antagonist project, cell-based, CHO-K1 PathHunter beta-arrestin, luminescence, set 3 (AID 651708)
- experimentalContext: antagonist mode, CXCR6, run 1
pIC50: −log10 of the molar value.
recordedMetric: pIC50

>>> measured("COc1cc(C(=O)NC2CC3CCCC(C2)N3CC(=O)Nc2ccc(F)cc2)cc(OC)c1OC (centres undefined)")
5.51
>>> measured("COc1ccc(NC(=O)CN2C3CCCC2CC(NC(=O)c2cc(OC)c(OC)c(OC)c2)C3)cc1 (centres undefined)")
4.91

stdin: For the molecule COc1ccc(NC(=O)CN2C3CCCC2CC(NC(=O)c2cccc(OC)c2)C3)cc1 (centres undefined) , what pIC50 is on record?
stdout: < 4.10

stdin: For the molecule COc1ccc(C(=O)NC2CC3CCCC(C2)N3CC(=O)Nc2ccc(C)cc2)cc1 (centres undefined) , what pIC50 is on record?
stdout: < 4.10

stdin: For the molecule COc1cc(OC)cc(C(=O)NC2CC3CCCC(C2)N3CC(=O)Nc2ccccc2)c1 (centres undefined) , what pIC50 is on record?
stdout: < 4.10

stdin: For the molecule COc1cc(C(=O)NC2CC3CCCC(C2)N3CC(=O)Nc2ccc(C)cc2)cc(OC)c1OC (centres undefined) , what pIC50 is on record?
stdout: 5.27

stdin: For the molecule COc1ccc(C(=O)NC2CC3CCCC(C2)N3CC(=O)Nc2ccc(F)cc2)cc1OC (centres undefined) , what pIC50 is on record?
stdout: < 4.10

stdin: For the molecule COc1ccc(CN2C3CCCC2CC(NC(=O)c2cc(OC)c(OC)c(OC)c2)C3)cc1 (centres undefined) , what pIC50 is on record?
stdout: < 4.10

stdin: For the molecule COc1ccc(C(=O)NC2CC3CCCC(C2)N3CC(=O)Nc2ccc(C)cc2)cc1OC (centres undefined) , what pIC50 is on record?
stdout: < 4.10
